Recorded values, source the supplement of paper PMC10307832.

Test system: NCI-H596
Assay: relative viability (nuclei count vs DMSO), 5 days (fraction); higher = more cells survive
Settings: first compound 0.03162 µM
readout.type: relative viability
I only need the number, thanks.

Here are 3 compounds together with their reported answers.
### Prompt Name the reported relative viability value associated with the compound CCN(CC)CCCCNc1ncc2cc(-c3cc(OC)cc(OC)c3)c(NC(=O)NC(C)(C)C)nc2n1 + CCNC(=O)c1noc(-c2cc(C(C)C)c(O)cc2O)c1-c1ccc(CN2CCOCC2)cc1 [Luminespib] (partner 0.01 µM)
### Response 1.05

### Prompt Entry CCN(CC)CCCCNc1ncc2cc(-c3cc(OC)cc(OC)c3)c(NC(=O)NC(C)(C)C)nc2n1 + CC(=O)Nc1cccc(-n2c(=O)n(C3CC3)c(=O)c3c(Nc4ccc(I)cc4F)n(C)c(=O)c(C)c32)c1 [Trametinib] (partner 0.02 µM) please
### Response 0.879

### Prompt Entry O=c1cc(N2CCOCC2)oc2c(-c3cccc4c3sc3ccccc34)cccc12 + Cc1nc(Nc2ncc(C(=O)Nc3c(C)cccc3Cl)s2)cc(N2CCN(CCO)CC2)n1 [Dasatinib] (partner 0.075 µM) please
### Response 0.574

More entries:
### Prompt Name the reported relative viability value associated with the compound CCN(CC)CCCCNc1ncc2cc(-c3cc(OC)cc(OC)c3)c(NC(=O)NC(C)(C)C)nc2n1 + Cc1cc(Nc2cc(N3CCN(C)CC3)nc(Sc3ccc(NC(=O)C4CC4)cc3)n2)n[nH]1 [Tozasertib] (partner 0.1 µM)
### Response 0.903

====

System: HCC-15
Test: relative viability (nuclei count vs DMSO), 5 days (fraction); higher = more cells survive
Conditions: first compound 0.03162 µM
I'd appreciate it if you marked entries MET when relative viability is lower than 0.8 and NOT MET when it is not.

### Prompt Is 0.8 strictly greater than the compound's reported relative viability? compound: O=c1cc(N2CCOCC2)oc2c(-c3cccc4c3sc3ccccc34)cccc12 + COc1cc2c(Oc3ccc(NC(=O)C4(C(=O)Nc5ccc(F)cc5)CC4)cc3F)ccnc2cc1OCCCN1CCOCC1 [Foretinib] (partner 0.25 µM)
### Response NOT MET

More entries:
### Prompt Is 0.8 strictly greater than the compound's reported relative viability? compound: CCN(CC)CCCCNc1ncc2cc(-c3cc(OC)cc(OC)c3)c(NC(=O)NC(C)(C)C)nc2n1 + CC(=O)c1c(C)c2cnc(Nc3ccc(N4CCNCC4)cn3)nc2n(C2CCCC2)c1=O [Palbociclib] (partner 0.5 µM)
### Response NOT MET

### Prompt Entry CCN(CC)CCCCNc1ncc2cc(-c3cc(OC)cc(OC)c3)c(NC(=O)NC(C)(C)C)nc2n1 + CCNC(=O)c1noc(-c2cc(C(C)C)c(O)cc2O)c1-c1ccc(CN2CCOCC2)cc1 [Luminespib] (partner 0.01 µM) please
### Response MET

### Prompt Entry CCN(CC)CCCCNc1ncc2cc(-c3cc(OC)cc(OC)c3)c(NC(=O)NC(C)(C)C)nc2n1 + O=C(CCCCCCC(=O)Nc1ccccc1)NO [Vorinostat] (partner 1 µM) please
### Response NOT MET

### Prompt Entry O=c1cc(N2CCOCC2)oc2c(-c3cccc4c3sc3ccccc34)cccc12 + Nc1ncn([C@H]2C[C@H](O)[C@@H](CO)O2)c(=O)n1 [Decitabine] (partner 2 µM) please
### Response MET

### Prompt Entry CCN(CC)CCCCNc1ncc2cc(-c3cc(OC)cc(OC)c3)c(NC(=O)NC(C)(C)C)nc2n1 + Cc1cc(Nc2cc(N3CCN(C)CC3)nc(Sc3ccc(NC(=O)C4CC4)cc3)n2)n[nH]1 [Tozasertib] (partner 0.1 µM) please
### Response MET

### Prompt Entry O=c1cc(N2CCOCC2)oc2c(-c3cccc4c3sc3ccccc34)cccc12 + CS(=O)(=O)CCNCc1ccc(-c2ccc3ncnc(Nc4ccc(OCc5cccc(F)c5)c(Cl)c4)c3c2)o1 [Lapatinib] (partner 2 µM) please
### Response NOT MET

====

Listed below: relative viability values for each entry.
System: NCI-H1355
Experiment: relative viability (nuclei count vs DMSO), 5 days (fraction); higher = more cells survive
Settings: first compound 1 µM
I only need the number, thanks.

Here are 8 compounds together with their reported answers.
### Prompt relative viability of CCN(CC)CCCCNc1ncc2cc(-c3cc(OC)cc(OC)c3)c(NC(=O)NC(C)(C)C)nc2n1 + Cc1cc(Nc2cc(N3CCN(C)CC3)nc(Sc3ccc(NC(=O)C4CC4)cc3)n2)n[nH]1 [Tozasertib] (partner 0.1 µM) on NCI-H1355?
### Response 0.411

### Prompt Entry O=c1cc(N2CCOCC2)oc2c(-c3cccc4c3sc3ccccc34)cccc12 + C[C@]1(O)C[C@@H](c2nc(-c3ccc4ccc(-c5ccccc5)nc4c3)c3c(N)nccn32)C1 [Linsitinib] (partner 1 µM) please
### Response 0.849

### Prompt Entry CCN(CC)CCCCNc1ncc2cc(-c3cc(OC)cc(OC)c3)c(NC(=O)NC(C)(C)C)nc2n1 + CC(C)C[C@H](NC(=O)[C@H](Cc1ccccc1)NC(=O)c1cnccn1)B(O)O [Bortezomib] (partner 0.002 µM) please
### Response 1.13

### Prompt Entry CCN(CC)CCCCNc1ncc2cc(-c3cc(OC)cc(OC)c3)c(NC(=O)NC(C)(C)C)nc2n1 + CC(=O)Nc1cccc(-n2c(=O)n(C3CC3)c(=O)c3c(Nc4ccc(I)cc4F)n(C)c(=O)c(C)c32)c1 [Trametinib] (partner 0.02 µM) please
### Response 0.382

### Prompt Entry CCN(CC)CCCCNc1ncc2cc(-c3cc(OC)cc(OC)c3)c(NC(=O)NC(C)(C)C)nc2n1 + O=C(c1cc(Cc2n[nH]c(=O)c3ccccc23)ccc1F)N1CCN(C(=O)C2CC2)CC1 [Olaparib] (partner 8 µM) please
### Response 0.737

### Prompt Entry CCN(CC)CCCCNc1ncc2cc(-c3cc(OC)cc(OC)c3)c(NC(=O)NC(C)(C)C)nc2n1 + Nc1ncn([C@H]2C[C@H](O)[C@@H](CO)O2)c(=O)n1 [Decitabine] (partner 2 µM) please
### Response 0.339

### Prompt Entry O=c1cc(N2CCOCC2)oc2c(-c3cccc4c3sc3ccccc34)cccc12 + C[C@@H](Oc1cc(-c2cnn(C3CCNCC3)c2)cnc1N)c1c(Cl)ccc(F)c1Cl [Crizotinib] (partner 1 µM) please
### Response 0.941

### Prompt Entry O=c1cc(N2CCOCC2)oc2c(-c3cccc4c3sc3ccccc34)cccc12 + Cc1nc(NC(=O)N2CCC[C@H]2C(N)=O)sc1-c1ccnc(C(C)(C)C(F)(F)F)c1 [Alpelisib] (partner 2 µM) please
### Response 0.82

More entries:
### Prompt relative viability of O=c1cc(N2CCOCC2)oc2c(-c3cccc4c3sc3ccccc34)cccc12 + CS(=O)(=O)N1CCN(Cc2cc3nc(-c4cccc5[nH]ncc45)nc(N4CCOCC4)c3s2)CC1 [Pictilisib] (partner 1 µM) on NCI-H1355?
### Response 0.419

### Prompt Entry CCN(CC)CCCCNc1ncc2cc(-c3cc(OC)cc(OC)c3)c(NC(=O)NC(C)(C)C)nc2n1 + C[C@@H](Oc1cc(-c2cnn(C3CCNCC3)c2)cnc1N)c1c(Cl)ccc(F)c1Cl [Crizotinib] (partner 1 µM) please
### Response 1.06

### Prompt Entry CCN(CC)CCCCNc1ncc2cc(-c3cc(OC)cc(OC)c3)c(NC(=O)NC(C)(C)C)nc2n1 + Cc1nc(Nc2ncc(C(=O)Nc3c(C)cccc3Cl)s2)cc(N2CCN(CCO)CC2)n1 [Dasatinib] (partner 0.075 µM) please
### Response 0.663

====

System: NCI-H1299
Experiment: relative viability (nuclei count vs DMSO), 5 days (fraction); higher = more cells survive
Conditions: first compound 0.3162 µM
Listed below: relative viability values for each entry.
I only need the number, thanks.

### Prompt Name the reported relative viability value associated with the molecule CCN(CC)CCCCNc1ncc2cc(-c3cc(OC)cc(OC)c3)c(NC(=O)NC(C)(C)C)nc2n1 + CS(=O)(=O)CCNCc1ccc(-c2ccc3ncnc(Nc4ccc(OCc5cccc(F)c5)c(Cl)c4)c3c2)o1 [Lapatinib] (partner 2 µM)
### Response 1.05

More entries:
### Prompt Name the reported relative viability value associated with the molecule CCN(CC)CCCCNc1ncc2cc(-c3cc(OC)cc(OC)c3)c(NC(=O)NC(C)(C)C)nc2n1 + C[C@@H](Oc1cc(-c2cnn(C3CCNCC3)c2)cnc1N)c1c(Cl)ccc(F)c1Cl [Crizotinib] (partner 1 µM)
### Response 0.972

====

Test system: HOP-62
Test: relative viability (nuclei count vs DMSO), 5 days (fraction); higher = more cells survive
Settings: first compound 0.253 µM
Listed below: relative viability values for each entry.
I only need the number, thanks.

Here are 2 molecules together with their reported answers.
### Prompt relative viability of O=c1cc(-c2cccc3c2Sc2ccccc2S3)oc(N2CCOCC2)c1 + CCNC(=O)c1noc(-c2cc(C(C)C)c(O)cc2O)c1-c1ccc(CN2CCOCC2)cc1 [Luminespib] (partner 0.01 µM) on HOP-62?
### Response 1.04

### Prompt Entry O=c1cc(-c2cccc3c2Sc2ccccc2S3)oc(N2CCOCC2)c1 + Cc1nc(NC(=O)N2CCC[C@H]2C(N)=O)sc1-c1ccnc(C(C)(C)C(F)(F)F)c1 [Alpelisib] (partner 2 µM) please
### Response 0.85

More entries:
### Prompt relative viability of O=c1cc(-c2cccc3c2Sc2ccccc2S3)oc(N2CCOCC2)c1 + CC(C)C[C@H](NC(=O)[C@H](Cc1ccccc1)NC(=O)c1cnccn1)B(O)O [Bortezomib] (partner 0.002 µM) on HOP-62?
### Response 1.27

### Prompt Entry O=c1cc(-c2cccc3c2Sc2ccccc2S3)oc(N2CCOCC2)c1 + NC(=O)Nc1cc(-c2cccc(F)c2)sc1C(=O)N[C@H]1CCCNC1 [AZD7762] (partner 0.2 µM) please
### Response 0.61

### Prompt Entry COc1nc(C)cnc1NS(=O)(=O)c1cccnc1-c1ccc(-c2nnco2)cc1 [Zibotentan] + CC(C)C[C@H](NC(=O)[C@H](Cc1ccccc1)NC(=O)c1cnccn1)B(O)O [Bortezomib] (partner 0.002 µM) please
### Response 0.625
